# assay-procedure: log P by HPLC on reversed-phase columns (C 18), EEC directive 79/831 Annex V.A8
# Assay type: physicochemical
# settings: reversed-phase C18 HPLC column, pH 2.7, acidic range, pH 2.7, 0.1% aqueous formic acid / acetonitrile; read-out: log P[a]
reported-endpoint: chromatographic logP

>>> numeric_value("Nc1cc(SCC(F)(F)F)ccc1Cl [IVa-4]")
3
>>> numeric_value("Cc1cc(F)c(-n2nnc3c(cnn3C)c2=O)cc1[S+]([O-])CC(F)(F)F (stereo not shown) [Compound 120]")
2.14

[P] Cc1cc(F)c(Br)cc1SCC(F)(F)F [VIIa-1]
[Q] Cc1ccc(B(O)O)cc1[S+]([O-])CC(F)(F)F (stereo not shown) [VIIIb-7]
stdin: So which one has the bigger chromatographic logP here, P or Q ? Could you answer with the label of the item you picked?
stdout: P

[I] O=C(Nc1cc(SSc2cc(NC(=O)C(F)(F)F)c(F)cc2Cl)c(Cl)cc1F)C(F)(F)F [XI-2]
[II] CC(=O)Nc1cc(SC(C)=O)c(C)cc1F [XVII-1]
stdin: Min chromatographic logP? I | II Could you answer with the label of the item you picked?
stdout: II
(II: 1.78, I: 4.6)

[1] Cc1cc(F)c(NC(=O)C(F)(F)F)cc1SSc1cc(NC(=O)C(F)(F)F)c(F)cc1C [XI-1]
[2] Cc1cc(F)c(N)cc1[S+]([O-])CC(F)(F)F (stereo not shown) [IVb-1]
stdin: Min chromatographic logP? 1 | 2 Could you answer with the label of the item you picked?
stdout: 2
